Values were extracted from PubChem BioAssay AID1963867.

- Tested on: KRAS-mutant PDC tumor spheroid with HUVEC/MSC, viability
- test name: Anticancer human tumor 327498-153-R-J2-PDC patient-derived uterine carcinosarcoma cell line growth inhibition [KRAS2]
- condition summary: second compound 1 µM; first compound 0.001 µM; active compounds read low
Each entry below carries its recorded viability, T/C.
Number in %, nothing else.

Examples with their reported viability, T/C follow.
compound	measure unit	value observed
CC(=O)Nc1cccc(-n2c(=O)n(C3CC3)c(=O)c3c(Nc4ccc(I)cc4F)n(C)c(=O)c(C)c32)c1 + COc1cc2nc(C)nc(NC(C)c3cc(N)cc(C(F)(F)F)c3)c2cc1OC1CCOC1	%	52.3
Cn1ncnc1[C@H]1c2n[nH]c(=O)c3cc(F)cc(c23)N[C@@H]1c1ccc(F)cc1 + COc1cc2nc(C)nc(NC(C)c3cc(N)cc(C(F)(F)F)c3)c2cc1OC1CCOC1	%	69.7

Attention now turns to another entry.
Quick one: give measured viability, T/C for CC(=O)Nc1cccc(-n2c(=O)n(C3CC3)c(=O)c3c(Nc4ccc(I)cc4F)n(C)c(=O)c(C)c32)c1 + C=CC(=O)N1CCN(c2nc(=O)n(-c3c(C)ccnc3C(C)C)c3nc(-c4c(O)cccc4F)c(F)cc23)C(C)C1 56.3

---

- Test system: KRAS-mutant PDC tumor spheroid with HUVEC/MSC, viability
- test name: Anticancer human tumor 327498-153-R-J2-PDC cell line growth inhibition [KRAS2];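 further: spheroids exposed to agents for seven days before reading; 100% = DMSO vehicle wells so lower means fewer viable cells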
- condition summary: second compound 10 µM; first compound 0.01 µM; active compounds read low
The entries below come with measured viability, T/C values attached.

Known viability, T/C results, listed for orientation:
molecule	assay metric	value observed
CC(=O)OC12COC1CC(O)C1(C)C(=O)C(O)C3=C(C)C(OC(=O)C(O)C(NC(=O)OC(C)(C)C)c4ccccc4)CC(O)(C(OC(=O)c4ccccc4)C21)C3(C)C (stereo not given) + COc1cc2nc(C)nc(NC(C)c3cc(N)cc(C(F)(F)F)c3)c2cc1OC1CCOC1	viability, T/C	6.87%
CC(C)n1nc(-c2ccc3oc(N)nc3c2)c2c(N)ncnc21 + COc1cc2nc(C)nc(NC(C)c3cc(N)cc(C(F)(F)F)c3)c2cc1OC1CCOC1	viability, T/C	17.4%
CC(=O)Nc1cccc(-n2c(=O)n(C3CC3)c(=O)c3c(Nc4ccc(I)cc4F)n(C)c(=O)c(C)c32)c1 + COc1cc2nc(C)nc(NC(C)c3cc(N)cc(C(F)(F)F)c3)c2cc1OC1CCOC1	viability, T/C	31.1%
CC1COCCN1c1cc(-c2ccnn2C)c2ccnc(-c3ccn[nH]3)c2n1 (stereo not given) + C=CC(=O)N1CCN(c2nc(=O)n(-c3c(C)ccnc3C(C)C)c3nc(-c4c(O)cccc4F)c(F)cc23)C(C)C1	viability, T/C	28.5%

Query molecule follows.
Specify viability, T/C for CC1COCCN1c1cc(-c2ccnn2C)c2ccnc(-c3ccn[nH]3)c2n1 (stereo not given) + COc1cc2nc(C)nc(NC(C)c3cc(N)cc(C(F)(F)F)c3)c2cc1OC1CCOC1 , system KRAS-mutant PDC tumor spheroid with HUVEC/MSC, viability. 46.3%

---

- System: KRAS-mutant PDC tumor spheroid with HUVEC/MSC, viability
- test name: Anticancer human tumor 327498-153-R-J2-PDC cell line growth inhibition [KRAS2];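 further: spheroids exposed to agents for seven days before reading; 100% = DMSO vehicle wells so lower means fewer viable cells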
- condition summary: second compound 0.1 µM; first compound 0.316 µM; active compounds read low
Overview of recorded viability, T/C for various compounds
Expressed in %, but write only the number.

Here is how some compounds turned out for viability, T/C.
compound	viability, T/C / %
CCN1CCN(Cc2ccc(Nc3ncc(F)c(-c4cc(F)c5nc(C)n(C(C)C)c5c4)n3)nc2)CC1 + CNCc1ccccc1-c1csc(C(C)Nc2nc(C)nc3cc(OC)c(OC)cc23)c1	41.7
CCNC(=O)CC1N=C(c2ccc(Cl)cc2)c2cc(OC)ccc2-n2c(C)nnc21 (stereo not drawn) + CC1OCC2(CCN(c3cnc(Sc4ccnc(N)c4Cl)c(N)n3)CC2)C1N	49.8

Consider the compound COc1cc2nccc(Oc3ccc(NC(=O)C4(C(=O)Nc5ccc(F)cc5)CC4)cc3)c2cc1OC + COc1cc2nc(C)nc(NC(C)c3cc(N)cc(C(F)(F)F)c3)c2cc1OC1CCOC1 and give its recorded viability, T/C. 74.6

---

- Test system: KRAS-mutant PDC tumor spheroid with HUVEC/MSC, viability
- test name: Anticancer human tumor 327498-153-R-J2-PDC cell line growth inhibition [KRAS2];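 further: spheroids exposed to agents for seven days before reading; 100% = DMSO vehicle wells so lower means fewer viable cells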
- condition summary: second compound 1 µM; first compound 0.00316 µM; active compounds read low
- From the text: Multicellular complex tumor spheroid response to RAS pathway inhibitors in combination with a targeted agents in patient-derived cell lines with oncogenic KRAS variants from multiple cancer types A high-throughput screen of multi-cell type tumor spheroids was designed to identify active combinations of targeted small molecules and KRAS pathway inhibitors. […] Compounds. […] If the clinical Cmax for an agent had not been determined, the highest concentration tested was 10 microM. […]
assay metric: viability, T/C (%)
Use % as the unit, but write only the number.

Known viability, T/C results, listed for orientation:
compound	assayed system	measure unit	viability, T/C
CCN1CCN(Cc2ccc(Nc3ncc(F)c(-c4cc(F)c5nc(C)n(C(C)C)c5c4)n3)nc2)CC1 + C=CC(=O)N1CCN(c2nc(=O)n(-c3c(C)ccnc3C(C)C)c3nc(-c4c(O)cccc4F)c(F)cc23)C(C)C1	KRAS-mutant PDC tumor spheroid with HUVEC/MSC, viability	%	48.3
CCN1CCN(Cc2ccc(Nc3ncc(F)c(-c4cc(F)c5nc(C)n(C(C)C)c5c4)n3)nc2)CC1 + CNCc1ccccc1-c1csc(C(C)Nc2nc(C)nc3cc(OC)c(OC)cc23)c1	KRAS-mutant PDC tumor spheroid with HUVEC/MSC, viability	%	72.7
CN(C)C/C=C/C(=O)Nc1cc2c(Nc3ccc(F)c(Cl)c3)ncnc2cc1O[C@H]1CCOC1 + C=CC(=O)N1CCN(c2nc(OCC3CCCN3C)nc3c2CCN(c2cccc4cccc(C)c24)C3)CC1CC#N	KRAS-mutant PDC tumor spheroid with HUVEC/MSC, viability	%	47
Cn1ncnc1[C@H]1c2n[nH]c(=O)c3cc(F)cc(c23)N[C@@H]1c1ccc(F)cc1 + CC1OCC2(CCN(c3cnc(Sc4ccnc(N)c4Cl)c(N)n3)CC2)C1N	KRAS-mutant PDC tumor spheroid with HUVEC/MSC, viability	%	26.6
CN(C)C/C=C/C(=O)Nc1cc2c(Nc3ccc(F)c(Cl)c3)ncnc2cc1O[C@H]1CCOC1 + COc1cc2nc(C)nc(NC(C)c3cc(N)cc(C(F)(F)F)c3)c2cc1OC1CCOC1	KRAS-mutant PDC tumor spheroid with HUVEC/MSC, viability	%	88.1
CCN1CCN(Cc2ccc(Nc3ncc(F)c(-c4cc(F)c5nc(C)n(C(C)C)c5c4)n3)nc2)CC1 + CC1OCC2(CCN(c3cnc(Sc4ccnc(N)c4Cl)c(N)n3)CC2)C1N	KRAS-mutant PDC tumor spheroid with HUVEC/MSC, viability	%	34.2

Read off the recorded viability, T/C for CC(C)n1nc(-c2ccc3oc(N)nc3c2)c2c(N)ncnc21 + CC1OCC2(CCN(c3cnc(Sc4ccnc(N)c4Cl)c(N)n3)CC2)C1N 20

Consider the compound CC(=O)Nc1cccc(-n2c(=O)n(C3CC3)c(=O)c3c(Nc4ccc(I)cc4F)n(C)c(=O)c(C)c32)c1 + C=CC(=O)N1CCN(c2nc(OCC3CCCN3C)nc3c2CCN(c2cccc4cccc(C)c24)C3)CC1CC#N . State its measured viability, T/C. 41.9

Item CC(=O)Nc1cccc(-n2c(=O)n(C3CC3)c(=O)c3c(Nc4ccc(I)cc4F)n(C)c(=O)c(C)c32)c1 + CNCc1ccccc1-c1csc(C(C)Nc2nc(C)nc3cc(OC)c(OC)cc23)c1 : provide viability, T/C 49.3

Note viability, T/C for the compound shown: Cn1ncnc1[C@H]1c2n[nH]c(=O)c3cc(F)cc(c23)N[C@@H]1c1ccc(F)cc1 + C=CC(=O)N1CCN(c2nc(=O)n(-c3c(C)ccnc3C(C)C)c3nc(-c4c(O)cccc4F)c(F)cc23)C(C)C1 42.7

Input CC(=O)Nc1cccc(-n2c(=O)n(C3CC3)c(=O)c3c(Nc4ccc(I)cc4F)n(C)c(=O)c(C)c32)c1 + COc1cc2nc(C)nc(NC(C)c3cc(N)cc(C(F)(F)F)c3)c2cc1OC1CCOC1 , output reported viability, T/C. 44.3

---

- Tested on: KRAS-mutant PDC tumor spheroid with HUVEC/MSC, viability
- test name: Anticancer human tumor 327498-153-R-J2-PDC cell line growth inhibition [KRAS2];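 further: spheroids exposed to agents for seven days before reading; 100% = DMSO vehicle wells so lower means fewer viable cells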
- condition summary: second compound 0.316 µM; first compound 0.1 µM; active compounds read low
assay metric: viability, T/C

// Input: CCNC(=O)CC1N=C(c2ccc(Cl)cc2)c2cc(OC)ccc2-n2c(C)nnc21 (stereo unspecified) + CNCc1ccccc1-c1csc(C(C)Nc2nc(C)nc3cc(OC)c(OC)cc23)c1 . Output its viability, T/C only. 69.6%

Quote viability, T/C reported for COc1cc(Nc2ncc3c(n2)-c2ccc(Cl)cc2C(c2c(F)cccc2OC)=NC3)ccc1C(=O)O + C=CC(=O)N1CCN(c2nc(=O)n(-c3c(C)ccnc3C(C)C)c3nc(-c4c(O)cccc4F)c(F)cc23)C(C)C1 please. 11.5%
